Hi there, I'd appreciate the recorded AC50 for every entry that follows.
# STUDY_TARGET: Heat shock protein HSP 90-alpha (Homo sapiens, UniProt P07900)
# Type: functional, organism-based
Active and inactive are the calls of the source.

CHEMICAL_STRUCTURE	STUDY_TARGET	MEASURED_PARAMETER	ENDPOINT_RESULT
COc1ccc(/C=C/C(=O)c2cc(Br)ccc(=O)c2O)cc1	Heat shock protein HSP 90-alpha (Homo sapiens, UniProt P07900)	AC50	4.22 µM (active)
Cc1ccc(C(=O)Sc2cccccc2=O)cc1	Heat shock protein HSP 90-alpha (Homo sapiens, UniProt P07900)	AC50	6.06 µM (active)
CC(=NNC(=S)Nc1cccc(Cl)c1)c1ccccn1	Heat shock protein HSP 90-alpha (Homo sapiens, UniProt P07900)	AC50	16.2 µM (active)

Now consider a different compound.
INPUT: Form field: AC50 recorded for COc1ccc2c(c1)c(=Cc1ccc(N(C)C)cc1)c1cc(-c3ccccc3)[n+](C)n12 with Heat shock protein HSP 90-alpha (Homo sapiens, UniProt P07900) (enter value)
OUTPUT: 3.93 µM (active)
